Entry source: patent EP4603105A1

# Tested On: UniProt:P01116
# Sequence (P01116 1-188 isoform P01116-2): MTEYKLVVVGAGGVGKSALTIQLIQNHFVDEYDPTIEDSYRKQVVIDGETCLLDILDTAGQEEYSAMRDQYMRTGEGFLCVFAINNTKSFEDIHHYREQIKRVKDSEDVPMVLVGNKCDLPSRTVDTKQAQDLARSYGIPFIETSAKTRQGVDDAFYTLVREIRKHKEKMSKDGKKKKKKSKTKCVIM
# Assay Explanation: Binding to KRAS by surface plasmon resonance (SPR), dissociation constant KD
# Test Conditions: 1:1 binding model
Please provide measured pKd for the entries that follow.
Give bare numbers, as −log10 of the molar value.

Here's what some known entries look like.
compound_structure=CCO[C@@H]1C[C@H]2C(=O)NC3(CC(C)(C)C3)C(=O)N(C)[C@@H](C3CCCC3)C(=O)N(C)[C@H](C(=O)N(C)C)CC(=O)N(C)[C@@H]([C@@H](C)OC)C(=O)N[C@@H]([C@@H](C)CC)C(=O)N(C3CC3)CC(=O)N(C)[C@H]3C/C=C\CCN(C3=O)[C@@H](Cc3ccc(C)cc3)C(=O)N(C)CC(=O)N[C@@H](CCc3ccc(C(F)(F)F)c(Cl)c3)C(=O)N2C1 obs_value=9.52
compound_structure=CCC[C@H]1C(=O)N[C@@H]([C@@H](C)CC)C(=O)N(C)CC(=O)N(C)[C@H]2C/C=C\CCN(C2=O)[C@@H](Cc2ccc(C(F)(F)F)cc2)C(=O)N(C)CC(=O)N[C@@H](CCc2ccc3sc(F)c(C)c3c2)C(=O)N2C[C@H](OCC)C[C@H]2C(=O)NC2(CC(C)(C)C2)C(=O)N(C)[C@@H](C2CCCC2)C(=O)N(C)[C@H](C(=O)N(C)C)CC(=O)N1C obs_value=9.26

Please supply pKd for each of the following items, keeping them in order.
1. CCC[C@H]1C(=O)N[C@@H]([C@@H](C)CC)C(=O)N(C)CC(=O)N(C)[C@H]2C/C=C\CCN(C2=O)[C@@H](Cc2ccc(C)cc2)C(=O)N(C)CC(=O)N[C@@H](CCc2ccc(C(F)(F)F)c(OC)c2)C(=O)N2CC3(CC3)C[C@H]2C(=O)NC2(CC(C)(C)C2)C(=O)N(C)[C@@H]([C@@H](C)CC)C(=O)N(C)[C@H](C(=O)N(C)C)CC(=O)N1C
2. CCC[C@H]1C(=O)N[C@@H]([C@@H](C)CC)C(=O)N(C)CC(=O)N(C)[C@H]2C/C=C\CCN(C2=O)[C@@H](Cc2ccc(C)cc2)C(=O)N(C)CC(=O)N[C@@H](CCc2ccc(Cl)c(Cl)c2)C(=O)N2C[C@H](OCC)C[C@H]2C(=O)NC2(CC(C)(C)C2)C(=O)N(C)[C@@H](CC(C)(C)C)C(=O)N(C)[C@H](C(=O)N(C)C)CC(=O)N1C
3. CC[C@H](C)[C@@H]1NC(=O)[C@H](COC)N(C)C(=O)C[C@@H](C(=O)N(C)C)N(C)C(=O)[C@H](C2CCCC2)N(C)C(=O)C2(CC(C)(C)C2)NC(=O)[C@@H]2C[C@H](C)CN2C(=O)[C@H](CCc2ccc(C(F)(F)F)c(OC)c2)NC(=O)CN(C)C(=O)[C@H](Cc2ccc(C)cc2)N2CC/C=C\C[C@@H](C2=O)N(C)C(=O)[C@@H]2C[C@H](C)CN2C1=O
4. CCC[C@H]1C(=O)N[C@@H]([C@@H](C)CC)C(=O)N(C)CC(=O)N(C)[C@H]2C/C=C\CCN(C2=O)[C@@H](Cc2ccc(C)cc2)C(=O)N(C)CC(=O)N[C@@H](CCc2ccc(C(F)(F)F)c(OC)c2)C(=O)N2C[C@H](OCC)C[C@H]2C(=O)NC2(CC(C)(C)C2)C(=O)N(C)[C@@H](CC2CCC2)C(=O)N(C)[C@H](C(=O)N(C)C)CC(=O)N1C
5. CCO[C@@H]1C[C@H]2C(=O)NC3(CC(C)(C)C3)C(=O)N(C)[C@@H](C3CCCC3)C(=O)N(C)[C@H](C(=O)N(C)CC)CC(=O)N(C)[C@@H](CC(C)C)C(=O)N[C@@H]([C@@H](C)CC)C(=O)N(C)CC(=O)N(C)[C@H]3C/C=C\CCN(C3=O)[C@@H](Cc3ccc(C(F)F)cc3)C(=O)N(C)CC(=O)N[C@@H](CCc3cc(C)c(C4CC4)c(C)c3)C(=O)N2C1

[9.24, 9.60, 8.92, 9.01, 8.62]

Please supply pKd for each of the following items, keeping them in order.
1. CCOC[C@H]1C(=O)N[C@@H]([C@@H](C)CC)C(=O)N(C)CC(=O)N(C)[C@H]2C/C=C\CCN(C2=O)[C@@H](Cc2ccc(C)cc2)C(=O)N(C)CC(=O)N[C@@H](CCc2ccc(C(F)(F)F)c(Cl)c2)C(=O)N2C[C@H](OCC)C[C@H]2C(=O)NC2(CC(C)(C)C2)C(=O)N(C)[C@@H](C2CCCC2)C(=O)N(C)[C@H](C(=O)N(C)C)CC(=O)N1C
2. CCO[C@@H]1C[C@H]2C(=O)NC3(CC(C)(C)C3)C(=O)N(C)[C@@H](C(CC)CC)C(=O)N(C)[C@H](C(=O)N(C)C)CC(=O)N(C)[C@@H](CC3CC3)C(=O)N[C@@H]([C@@H](C)CC)C(=O)N(C)CC(=O)N(C)[C@H]3C/C=C\CCN(C3=O)[C@@H](CC3CCC(F)(F)CC3)C(=O)N(C)CC(=O)N[C@@H](CCc3cc(F)c(C(F)(F)F)c(F)c3)C(=O)N2C1
3. CCOC[C@H]1C(=O)N[C@@H]([C@@H](C)CC)C(=O)N2CCC[C@H]2C(=O)N(C)[C@H]2C/C=C\CCN(C2=O)[C@@H](CC2CCCCC2)C(=O)N(C)CC(=O)N[C@@H](CCc2ccc(C(F)(F)F)c(OC)c2)C(=O)N2C[C@@H](C)C[C@H]2C(=O)N(C)C2(CCC2)C(=O)N(C)[C@@H](C2CCCC2)C(=O)N(C)[C@H](C(=O)N(C)C)CC(=O)N1C
4. CCO[C@@H]1C[C@H]2C(=O)NC3(CC(C)(C)C3)C(=O)N(C)[C@@H](C3CCCC3)C(=O)N(C)[C@H](C(=O)N(C)C)CC(=O)N(C)[C@@H]([C@@H](C)OC)C(=O)N[C@@H]([C@@H](C)CC)C(=O)N3CCC[C@H]3C(=O)N(C)[C@H]3C/C=C\CCN(C3=O)[C@@H](Cc3ccc(C(F)(F)F)cc3)C(=O)N(C)CC(=O)N[C@@H](CCc3ccc(C(F)(F)F)c(Cl)c3)C(=O)N2C1

10.14
9.11
8.96
9.37

* * *

Please provide measured log10 IC50 for the entries that follow.
# Tested on: human lung cancer strain NCI-H441
# Assay Explanation: NCI-H441 cell proliferation inhibitory activity (CellTiter-Glo, 4 days)
# Format: cell-based
# Test Conditions: 50% proliferation inhibitory concentration, four days, read-out: NCl-H441 IC50
Transform log10 | Measure IC50 | Unit nM

Please supply log10 IC50 for each of the following items, keeping them in order.
1. CCO[C@@H]1C[C@H]2C(=O)NC3(CCC3)C(=O)N(C)[C@@H](C3CCCC3)C(=O)N(C)[C@H](C(=O)N3CCOCC3)CC(=O)N(C)[C@@H](Cc3cccs3)C(=O)N[C@@H]([C@@H](C)CC)C(=O)N(C)CC(=O)N(C)[C@H]3CCCCCN(C3=O)[C@@H](Cc3ccc(F)cc3)C(=O)N(C)CC(=O)N[C@@H](CCc3cc(F)c(C(F)(F)F)c(F)c3)C(=O)N2C1
2. CCO[C@@H]1C[C@H]2C(=O)NC3(CCC3)C(=O)N(C)[C@@H](C3CCCC3)C(=O)N(C)[C@H](C(=O)N(C)C)CC(=O)N(C)[C@@H](CC(C)C)C(=O)N[C@@H]([C@@H](C)CC)C(=O)N(C)CC(=O)N(C)[C@H]3C/C=C\CCN(C3=O)[C@@H](CC3CCCCC3)C(=O)N(C)CC(=O)N[C@@H](CCc3cc(F)c(C(F)(F)F)c(F)c3)C(=O)N2C1

1. 1.44
2. 1.05

* * *

# Test system: human lung cancer strain NCI-H441
# Assay Explanation: NCI-H441 cell proliferation inhibitory activity (CellTiter-Glo, 4 days)
# Assay type: cell-based
# Test Conditions: NCI-H441 cells, 4 days, read-out: NCl-H441 IC50
Quantity Measured: IC50 (nM)
Answers are plain numbers, in nM.

Here's what some known entries look like.
compound_structure=CCC[C@H]1C(=O)N[C@@H](C2CCCC2)C(=O)N(C)CC(=O)N(C)[C@H]2C/C=C\CCN(C2=O)[C@@H](Cc2ccc(C)cc2)C(=O)N(C)CC(=O)N[C@@H](CCc2ccc(C(F)(F)F)c(Cl)c2)C(=O)N2CC3(CC3)C[C@H]2C(=O)NC2(CCC2)C(=O)N(C)[C@@H](C2CCCC2)C(=O)N(C)[C@H](C(=O)N(C)C)CC(=O)N1C obs_value=13.6
compound_structure=CCO[C@H](C)[C@@H]1NC(=O)[C@H](CC(C)C)N(C)C(=O)C[C@@H](C(=O)N(C)C)N(C)C(=O)[C@H](C2CCCC2)N(C)C(=O)C2(CC(C)(C)C2)NC(=O)[C@@H]2C[C@H](C)CN2C(=O)[C@H](CCc2ccc(C(F)(F)F)c(OC)c2)NC(=O)CN(C)C(=O)[C@H](Cc2ccc(C)cc2)N2CC/C=C\C[C@@H](C2=O)N(C)C(=O)CN(C)C1=O obs_value=21

Please supply IC50 for each of the following items, keeping them in order.
1. C#CCN1CC(=O)N(C)[C@H]2C/C=C\CCN(C2=O)[C@@H](Cc2ccc(C(F)F)cc2)C(=O)N(C)CC(=O)N[C@@H](CCc2cc(F)c(C(F)(F)F)c(F)c2)C(=O)N2C[C@H](OC(C)C)C[C@H]2C(=O)N(C)C2(CCC2)C(=O)N(C)[C@@H](C(CC)CC)C(=O)N(C)[C@H](C(=O)N(C)C)CC(=O)N(C)[C@@H](COCCC)C(=O)N[C@@H]([C@@H](C)CC)C1=O
2. CCOC[C@H]1C(=O)N[C@@H]([C@@H](C)CC)C(=O)N(C)CC(=O)N(C)[C@H]2C/C=C\CCN(C2=O)[C@@H](CC2CCC(F)(F)CC2)C(=O)N(C)CC(=O)N[C@@H](CCc2cc(F)c(C(F)(F)F)c(F)c2)C(=O)N2C[C@@H](C)C[C@H]2C(=O)NC2(CC(C)(C)C2)C(=O)N(C)[C@@H](C(CC)CC)C(=O)N(C)[C@H](C(=O)N(C)C)CC(=O)N1C
3. CCO[C@@H]1C[C@H]2C(=O)NC3(CC(C)(C)C3)C(=O)N(C)[C@@H](C3CCCC3)C(=O)N(C)[C@H](C(=O)N(C)C)CC(=O)N[C@@H](CC(C)C)C(=O)N[C@@H]([C@@H](C)CC)C(=O)N(C)CC(=O)N(C)[C@H]3C/C=C\CCN(C3=O)[C@@H](Cc3ccc(C(F)(F)F)cc3)C(=O)N(C)CC(=O)N[C@@H](CCc3ccc(C(F)(F)F)c(OC)c3)C(=O)N2C1
4. CCC[C@H]1C(=O)N[C@@H]([C@@H](C)CC)C(=O)N(C2CC2)CC(=O)N(C)[C@H]2C/C=C\CCN(C2=O)[C@@H](Cc2ccc(C)cc2)C(=O)N(C)CC(=O)N[C@@H](CCc2ccc(Cl)c(Cl)c2)C(=O)N2C[C@H](OCC)C[C@H]2C(=O)NC2(CC(C)(C)C2)C(=O)N(C)[C@@H](C2CCCC2)C(=O)N(C)[C@H](C(=O)N(C)C)CC(=O)N1C

1. 23.7
2. 87.2
3. 20.2
4. 103
